# Test System: HLA-A*02:01 (Homo sapiens, UniProt P04439, D140Y/D185E/D98H/E176V/E277Q/G131W/G231S/I119V/I121R/I166T/I218V/L300P/L318F/N151K/N90K/P208A/P217A/Q86G/Q94H/R138H/R169H/T345S)
# Protocol Details: MHC binding assay, UV-ligand exchange ELISA
# Cond: peptide exchange yield, binding to HLA-A*02:01
Recorded Endpoint: Peptide exchange

Substance | Recorded Measurement
121 (ILVTAWKGV; listed as Homo sapiens) [compound 121] | +++ (≥50% = +++)
188 (KLPFFTNFL; listed as Homo sapiens) [compound 188] | ++++ (≥75% = ++++)
18 (SLSKLVATV; listed as Homo sapiens) [compound 18] | ++++ (≥75% = ++++)
118 (RLLRLIPIL; listed as Homo sapiens) [compound 118] | ++++ (≥75% = ++++)

For 12 (RLQEGLAAL; listed as Homo sapiens) [compound 12] the substance record lists Peptide exchange as ++++ (≥75% = ++++)

Entry under test: 10 (ILMILQPQL; listed as Homo sapiens) [compound 10] . Its Peptide exchange was ++++ (≥75% = ++++)

Peptide exchange in this record for 142 (YMLEMDNSMKI; listed as Homo sapiens) [compound 142] : ++++ (≥75% = ++++)

Input 108 (SLQESLPNA; listed as Homo sapiens) [compound 108] . Output Peptide exchange: +++ (≥50% = +++)

The recorded Peptide exchange for 102 (FLLLEKGGEL; listed as Homo sapiens) [compound 102] is ++++ (≥75% = ++++)

Memo: 113 (ALGPMAFRV; listed as Homo sapiens) [compound 113] , reported Peptide exchange: ++++ (≥75% = ++++)

Summary for this substance, 4 (IQAPALLKV; listed as Homo sapiens) [compound 4] : Peptide exchange is ++++ (≥75% = ++++)
